The compounds listed here are annotated with their IC50.
assayed_system: human histamine 4 receptor (hH4R) (Homo sapiens (Human), UniProt Q9H3N8)
Sequence (Q9H3N8 whole entry): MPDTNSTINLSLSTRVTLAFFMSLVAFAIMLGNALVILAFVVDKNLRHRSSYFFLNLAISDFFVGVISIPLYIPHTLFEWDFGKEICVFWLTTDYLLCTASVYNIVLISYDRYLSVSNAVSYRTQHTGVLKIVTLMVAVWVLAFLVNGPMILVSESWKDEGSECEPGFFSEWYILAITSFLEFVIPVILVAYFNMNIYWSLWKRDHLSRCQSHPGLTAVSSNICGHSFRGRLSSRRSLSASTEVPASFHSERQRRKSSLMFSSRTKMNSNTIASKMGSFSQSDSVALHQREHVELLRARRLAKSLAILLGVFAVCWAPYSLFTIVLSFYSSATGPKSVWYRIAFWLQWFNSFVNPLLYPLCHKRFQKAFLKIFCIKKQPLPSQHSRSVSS
test_protocol: Binding affinity of human histamine 4 receptor (hH4R), [3H] labeled histamine displacement
experimental_conditions: hH4R-overexpressed cell membrane, [3H] histamine

[
  {
    "compound": "COc1nc2nc(N3CCN(C)CC3)c3nncn3c2cc1Cl [Compound 60]",
    "assayed_system": "human histamine 4 receptor (hH4R) (Homo sapiens (Human), UniProt Q9H3N8)",
    "unit_info": "µM",
    "IC50": 0.61
  },
  {
    "compound": "Clc1cc2c(nc1Cl)nc(N1CCNCC1)c1nncn12 [Compound 62]",
    "assayed_system": "human histamine 4 receptor (hH4R) (Homo sapiens (Human), UniProt Q9H3N8)",
    "unit_info": "µM",
    "IC50": 0.51
  },
  {
    "compound": "CN1CCN(c2nc3nc(C#N)c(Cl)cc3n3cnnc23)CC1 [Compound 21]",
    "assayed_system": "human histamine 4 receptor (hH4R) (Homo sapiens (Human), UniProt Q9H3N8)",
    "unit_info": "µM",
    "IC50": 0.27
  },
  {
    "compound": "Cc1c(Br)cnc2nc(N3CCN(C)CC3)c3nncn3c12 [Compound 66]",
    "assayed_system": "human histamine 4 receptor (hH4R) (Homo sapiens (Human), UniProt Q9H3N8)",
    "unit_info": "µM",
    "IC50": 0.3
  }
]

###

test_protocol: Solubility in artificial gastrointestinal tract solution
Assay type: physicochemical
experimental_conditions: artificial gastrointestinal tract solution, fassgf or other biorelevant, thermodynamic from solid; first solution pH 1.2, 2 mg/mL sample, 37° C. 1 hour
The compounds listed here are annotated with their solubility at 1 h.

[
  {
    "compound": "CNC1CN(c2nc3ncc(Br)cc3n3cnnc23)C1.Cl",
    "solubility at 1 h (µg/mL)": 1820
  },
  {
    "compound": "CNC1CN(c2nc3ncc(Br)cc3c3ccnn23)C1",
    "solubility at 1 h (µg/mL)": 1870
  },
  {
    "compound": "CN1CCN(c2nc3ncc(Cl)cc3n3cnnc23)CC1",
    "solubility at 1 h (µg/mL)": 2010
  },
  {
    "compound": "CNC1CN(c2nc3ncc(C)cc3n3cnnc23)C1",
    "solubility at 1 h (µg/mL)": 1990
  },
  {
    "compound": "Ic1cnc2nc(N3CCN4CCCC4C3)c3nncn3c2c1 (stereo not shown)",
    "solubility at 1 h (µg/mL)": 2000
  },
  {
    "compound": "CNC1CN(c2nc3ncc(Br)cc3n3nnnc23)C1.Cl",
    "solubility at 1 h (µg/mL)": 1810
  },
  {
    "compound": "CNC1CN(c2nc3ncc(Cl)cc3n3ccnc23)C1",
    "solubility at 1 h (µg/mL)": 1820
  },
  {
    "compound": "CNC1CN(c2nc3ncc(Cl)cc3n3nnnc23)C1",
    "solubility at 1 h (µg/mL)": 1970
  },
  {
    "compound": "CNC1CN(c2nc3ncc([N+](=O)[O-])cc3n3cnnc23)C1",
    "solubility at 1 h (µg/mL)": 1900
  },
  {
    "compound": "Brc1cnc2nc(N3CCNCC3)c3nncn3c2c1",
    "solubility at 1 h (µg/mL)": 1930
  }
]

###

test_protocol: Rat pharmacokinetics (oral)
Type: in vivo
experimental_conditions: plasma, 10 mg/kg, SD rat, 2 mg/mL solution at 5 mL/kg, read-out: Rat pharmacokinetics AUCinf

[
  {
    "cpd_smiles": "Clc1cnc2nc(N3CCNCC3)c3nncn3c2c1",
    "AUC(0-inf)": "3110 ng·h/mL"
  },
  {
    "cpd_smiles": "CNC1CN(c2nc3ncc(Cl)cc3n3cnnc23)C1",
    "AUC(0-inf)": "4560 ng·h/mL"
  },
  {
    "cpd_smiles": "CNC1CN(c2nc3ncc(C#N)cc3n3cnnc23)C1",
    "AUC(0-inf)": "2920 ng·h/mL"
  },
  {
    "cpd_smiles": "CNC1CN(c2nc3ncc(Br)cc3n3cnnc23)C1",
    "AUC(0-inf)": "4510 ng·h/mL"
  },
  {
    "cpd_smiles": "CN1CCN(c2nc3ncc(Cl)cc3n3cnnc23)CC1",
    "AUC(0-inf)": "7740 ng·h/mL"
  }
]

###

test_protocol: Rat pharmacokinetics (oral)
Type: in vivo
experimental_conditions: plasma, 10 mg/kg, SD rat, 2 mg/mL solution at 5 mL/kg

[
  {
    "cpd_smiles": "CNC1CN(c2nc3ncc(Br)cc3n3cnnc23)C1",
    "Cmax [ng/mL]": 2420
  },
  {
    "cpd_smiles": "CN1CCN(c2nc3ncc(Cl)cc3n3cnnc23)CC1",
    "Cmax [ng/mL]": 1950
  },
  {
    "cpd_smiles": "CNC1CN(c2nc3ncc(C#N)cc3n3cnnc23)C1",
    "Cmax [ng/mL]": 970
  },
  {
    "cpd_smiles": "CNC1CN(c2nc3ncc(Cl)cc3n3cnnc23)C1",
    "Cmax [ng/mL]": 2590
  },
  {
    "cpd_smiles": "Clc1cnc2nc(N3CCNCC3)c3nncn3c2c1",
    "Cmax [ng/mL]": 1330
  }
]

###

test_protocol: Solubility in artificial gastrointestinal tract solution
Type: physicochemical
experimental_conditions: fassgf or other biorelevant, thermodynamic from solid; first solution pH 1.2, 2 mg/mL sample, 37° C. 1 hour

[
  {
    "compound": "CNC1CN(c2nc3ncc(C(F)(F)F)cc3n3cnnc23)C1 [Compound 52]",
    "solubility at 1 h": "1670 µg/mL"
  }
]

###

test_protocol: Solubility in artificial gastrointestinal tract solution
Type: physicochemical
experimental_conditions: artificial gastrointestinal tract solution, fassgf or other biorelevant, thermodynamic from solid; first solution pH 1.2, 2 mg/mL sample, 37° C. 1 hour
The molecules listed here are annotated with their solubility at 1 h.

[
  {
    "molecule": "CNC1CN(c2nc3ncc(Cl)cc3c3oc(C)nc23)C1 [Compound 91]",
    "solubility at 1 h / µg/mL": 1840
  },
  {
    "molecule": "CNC1CN(C2=Nc3ncc(Br)cc3N3CCN=C23)C1 [Compound 107]",
    "solubility at 1 h / µg/mL": 1420
  },
  {
    "molecule": "CNC1CN(c2nc3ncc(C#N)cc3n3cnnc23)C1 [Compound 25]",
    "solubility at 1 h / µg/mL": 1930
  },
  {
    "molecule": "CNC1CN(c2nc3ncc(Cl)cc3n3cnnc23)C1 [Compound 18]",
    "solubility at 1 h / µg/mL": 1590
  },
  {
    "molecule": "Clc1cnc2nc(N3CCN4CCCC4C3)c3nncn3c2c1 (stereo not shown) [Compound 29]",
    "solubility at 1 h / µg/mL": 1560
  },
  {
    "molecule": "CN1CCN(c2nc3ncc(Cl)cc3n3ccnc23)CC1 [Compound 46]",
    "solubility at 1 h / µg/mL": 1910
  },
  {
    "molecule": "Cc1nc2c3cc(Cl)cnc3nc(N3CCN(C)CC3)n2n1 [Compound 31]",
    "solubility at 1 h / µg/mL": 2010
  },
  {
    "molecule": "CN1CCN(c2nc3ncc(Br)cc3n3cnnc23)CC1 [Compound 12]",
    "solubility at 1 h / µg/mL": 1930
  },
  {
    "molecule": "Cc1nc2c(N3CCN(C)CC3)nc3ncc(Cl)cc3n2n1 [Compound 98]",
    "solubility at 1 h / µg/mL": 1700
  },
  {
    "molecule": "CNC1CN(c2nc3ncc(Br)cc3n3cnnc23)C1.O=C(O)C(F)(F)F [Compound 104]",
    "solubility at 1 h / µg/mL": 1510
  },
  {
    "molecule": "CNC1CN(c2nc3ncc(I)cc3n3cnnc23)C1 [Compound 48]",
    "solubility at 1 h / µg/mL": 1610
  },
  {
    "molecule": "Brc1cnc2nc(N3CCN4CCCC4C3)c3nncn3c2c1 (stereo not shown) [Compound 74]",
    "solubility at 1 h / µg/mL": 1530
  },
  {
    "molecule": "C[C@H]1CN(c2nc3ncc(Cl)cc3n3cnnc23)CCN1 [Compound 19]",
    "solubility at 1 h / µg/mL": 1980
  },
  {
    "molecule": "CNC1CN(c2nc3ncc(Br)cc3n3nnnc23)C1 [Compound 95]",
    "solubility at 1 h / µg/mL": 1790
  },
  {
    "molecule": "CNC1CN(c2nc3ccc(Cl)nc3n3cnnc23)C1 [Compound 116]",
    "solubility at 1 h / µg/mL": 1940
  },
  {
    "molecule": "C[C@H]1CN(c2nc3ncc(Cl)cc3n3cnnc23)CCN1C [Compound 20]",
    "solubility at 1 h / µg/mL": 2070
  }
]

Attribution: patent US9586959B2
